Where do the numbers come from? From the supplement of paper PMC11451515.

Test system: SEM cells
experiment: cell viability relative to DMSO control; higher = less cytotoxic
assay.setup: RPMI 5 mM glucose + 10% FBS; 48 h; 5.12 µM
Binarize cell viability at 90%; below is yes (1), at or above is no (0).

# compound, class
data = [
    ("Cc1ccccc1C(C(=O)NC1CCCCC1)N(C(=O)Cn1ccnc1C)c1cccc(F)c1 (centres undefined)", "no (0)"),
    ("c1cncc(CN2CCC(n3ncc4c(N5CCOCC5)nc(-c5ccc6[nH]ccc6c5)nc43)CC2)c1", "yes (1)"),
    ("CCC(C)SSc1ncc[nH]1 (centres undefined)", "yes (1)"),
    ("CC(=O)Nc1ccc(OC[C@](C)(O)C(=O)Nc2ccc([N+](=O)[O-])c(C(F)(F)F)c2)cc1", "yes (1)"),
    ("OC(=O)C1=CC=C(NC2=NC3=C(C\\N=C(/C4=CC(=CC=C34)Cl)C5=C(F)C=CC=C5F)C=N2)C=C1", "yes (1)"),
    ("CC(C)NCC(O)COc1ccc(COCCOC(C)C)cc1 (centres undefined)", "no (0)"),
    ("CC(C)(C)C(=O)Oc1ccc2c(c1)nc(NC(=O)c1cccc([N+](=O)[O-])c1)n2CCCO", "no (0)"),
    ("OC[C@H]1O[C@@H](O[C@@H]2[C@@H](CO)O[C@](O)(CO)[C@H]2O)[C@H](O)[C@@H](O)[C@H]1O", "no (0)"),
    ("COc1cc2c(cc1OC)C1CC(=O)C(CC(C)C)CN1CC2 (centres undefined)", "no (0)"),
]

---

Tested on: SEM cells
experiment: cell viability relative to DMSO control; higher = less cytotoxic
assay.setup: HPLM + 10% dialyzed FBS; 48 h; 1.71 µM
Item-by-item account of cell viability
parameter: cell viability (%)

# structure.smiles, measurement.unit, observed.result
data = [
    ("CNC(=O)c1ccc(-c2cnc3ncc(Cc4ccc5ncccc5c4)n3n2)cc1F", "%", 137),
    ("Cn1cc(/C=C/C(=O)c2cccc(F)c2)cc1/C=C/C(=O)NO", "%", 128),
    ("O=C(OC)[C@]12CC[C@@]3(C)[C@]4(C)CC[C@H]5[C@@](C)(C)C(=O)C(=C[C@]5(C)C4=CC(=O)[C@@H]3[C@@H]2C[C@](C)(C)CC1)C#N", "%", 107),
    ("Cc1cc(OCCCc2c(C(=O)O)n(Cc3cccnc3)c3c(-c4c(COc5ccc(N6CCN([S+](C)(=O)[O-])CC6)cc5)nn(C)c4C)cccc23)cc(C)c1Cl", "%", 93.3),
]

---

Test system: NOMO1
experiment: cell viability relative to DMSO control; higher = less cytotoxic
assay.setup: RPMI 5 mM glucose + 10% dialyzed FBS; 48 h; 0.0211 µM
Here, each record is paired with measured cell viability data.

# molecule, cell viability
data = [
    ("CC(C)C(C)/C=C/C(C)C1CCC2C3=CC=C4CC(O)CCC4(C)C3CCC21C (stereo not given)", "89.8%"),
    ("COC1=C(N2CCNC(C)C2)C(=CC3=C1N(\\C=C(C(O)=O)/C3=O)C4CC4)F (stereo not given)", "94.3%"),
    ("COc1nccc(-c2c(-c3ccc(F)cc3)ncn2C2CCNCC2)n1", "110%"),
    ("NC1(Cc2ccc(Cl)cc2)CCN(c2ncnc3[nH]ccc23)CC1", "90.2%"),
    ("CNC1CCC(N(Cc2cccc(-c3ccncc3)c2)C(=O)c2sc3ccccc3c2Cl)CC1 (stereo not given)", "87%"),
    ("CN\\1C(=O)/C(=C(\\N=C1N2CCCC[S+]2([O-])=O)C(=O)NCC3=CC=C(F)C=C3)O", "123%"),
    ("CC(=O)Oc1ccccc1C(=O)O", "109%"),
    ("OC1=C(O)C2=C(\\C=C/C(=O)O2)C=C1", "107%"),
    ("ClC1=C(N\\C2=N\\CCN2)C3=NSN=C3C=C1", "132%"),
    ("CCC[C@H](NC(=O)/C(C#N)=C/c1cccc(Br)n1)c1ccccc1", "115%"),
]
